Measured pKi of individual entries
target_system: human cathepsin K (CatK) (Homo sapiens (Human))
Sequence (P43235 115-329): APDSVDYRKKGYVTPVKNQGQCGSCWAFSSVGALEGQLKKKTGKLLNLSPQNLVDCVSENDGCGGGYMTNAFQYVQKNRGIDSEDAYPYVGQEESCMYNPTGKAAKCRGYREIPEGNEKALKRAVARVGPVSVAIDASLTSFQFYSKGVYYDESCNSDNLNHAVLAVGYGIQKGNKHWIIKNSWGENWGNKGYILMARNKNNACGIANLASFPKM
protocol_details: CatK functional enzyme assay
settings: recombinant human CatK, substrate Z-FR-AMC 40 μM, pH 5.5; Ki by Cheng Prusoff equation; read-out: hCatK, Ki
pKi here: minus log base 10 of the concentration, concentration in moles per litre.

| molecule | quantity | value |
| --- | --- | --- |
| Cc1ncccc1-c1ccc(C(=O)N[C@H](C(=O)N2C[C@H](Cl)[C@H]3OCC(=O)[C@H]32)C2CCCCC2)s1 [Example 83] | pKi | 8.15 |
| O=C(N[C@H](C(=O)N1C[C@H](Cl)[C@H]2OCC(=O)[C@H]21)C1CCCCC1)c1cc(F)c(-c2cccnn2)s1 [Example 54] | pKi | 7.68 |
| O=C(N[C@H](C(=O)N1C[C@H](Cl)[C@H]2OCC(=O)[C@H]21)C1CCCCC1)c1ncc(-c2ccc(C(F)(F)F)nc2)s1 [Example 68] | pKi | 7.19 |
| O=C(N[C@H](C(=O)N1C[C@H](Cl)[C@H]2OCC(=O)[C@H]21)C1CCCCC1)c1ccc(-c2ccnnc2)s1 [Example 8] | pKi | 7.77 |
| O=C(N[C@H](C(=O)N1C[C@H](Cl)[C@H]2OCC(=O)[C@H]21)C1CCCCC1)c1ncc(-c2cccnn2)s1 [Example 15] | pKi | 7.60 |

Ask: pKi for Cc1nnccc1-c1ccc(C(=O)N[C@H](C(=O)N2C[C@H](Cl)[C@H]3OCC(=O)[C@H]32)C2CCCCC2)s1 [Example 58] ?
Result: 7.47

Ask: Please answer likewise for O=C(N[C@H](C(=O)N1C[C@H](Cl)[C@H]2OCC(=O)[C@H]21)C1CCCCC1)c1ccc(-c2cncc(F)c2)s1 [Example 16]
Result: 7.89

Ask: And what about the molecule O=C(N[C@H](C(=O)N1C[C@H](Cl)[C@H]2OCC(=O)[C@H]21)C1CCCCC1)c1sc(-c2cccnn2)cc1F [Example 59] ?
Result: 6.93
